Sourced from ChEMBL document CHEMBL3596099

system: Nucleic Acid; assay: Binding affinity to A3T3 repeat containing DNA5(3) (unknown origin) assessed as cooperativity with DNA at 10 nM by fluorescence titration based McGhee-von Hippel analysis; assay type: nucleic-acid assay
Calls of active or inactive are those of the source. No cut-off for these calls is given here.
Outcomes: yes = active, no = inactive

[[record]]
given_smiles = "CN1CCN(c2cc(C(=O)NCCN(CCC(=O)NCCOCCOCCNC(=O)COc3ccc4ccccc4n3)CCC(=O)NCCOCCOCCNC(=O)COc3ccc4ccccc4n3)c3nc(-c4ccc5nc(-c6ccc(O)cc6)[nH]c5c4)[nH]c3c2)CC1"
classification = "no"

[[record]]
given_smiles = "CN1CCN(c2cc(C(=O)NCCN(CCC(=O)NCCNC(=O)COc3ccc4ncccc4c3)CCC(=O)NCCNC(=O)COc3ccc4ncccc4c3)c3nc(-c4ccc5nc(-c6ccc(O)cc6)[nH]c5c4)[nH]c3c2)CC1"
classification = "no"

[[record]]
given_smiles = "CN1CCN(c2cc(C(=O)NCCN(CCC(=O)NCCOCCOCCNC(=O)COc3ccc4ncccc4c3)CCC(=O)NCCOCCOCCNC(=O)COc3ccc4ncccc4c3)c3nc(-c4ccc5nc(-c6ccc(O)cc6)[nH]c5c4)[nH]c3c2)CC1"
classification = "yes"

[[record]]
given_smiles = "CN1CCN(c2cc(C(=O)NCCN(CCC(=O)NCCOCCOCC(=O)NCCOCCOCCNC(=O)COc3ccc4ncccc4c3)CCC(=O)NCCOCCOCC(=O)NCCOCCOCCNC(=O)COc3ccc4ncccc4c3)c3nc(-c4ccc5nc(-c6ccc(O)cc6)[nH]c5c4)[nH]c3c2)CC1"
classification = "no"

[[record]]
given_smiles = "CN1CCN(c2cc(C(=O)NCCN(CCC(=O)NCCOCCOCCNC(=O)COc3ccc4nccnc4c3)CCC(=O)NCCOCCOCCNC(=O)COc3ccc4nccnc4c3)c3nc(-c4ccc5nc(-c6ccc(O)cc6)[nH]c5c4)[nH]c3c2)CC1"
classification = "no"

